# System: Rhizoctonia oryzae
# assay.protocol: Test G: turf brown patch, preventive spray on creeping bent grass seedlings
# condition.description: 40 ppm (*)
Marks after values point to notes of the source that are not given here.
Collected Test G disease control rating values appear next to each entry.

[
  {
    "compound": "CC(C)Cn1c(Cc2ccccc2)c(Cl)nc(-n2cccn2)c1=O [compound 130]",
    "Test G disease control rating": "0* %"
  },
  {
    "compound": "O=c1c(-n2cccn2)nc(Cl)c(-c2c(F)cccc2F)n1CCCl [compound 124]",
    "Test G disease control rating": "21* %"
  },
  {
    "compound": "CCC(CC)n1c(-c2c(F)cccc2F)c(Cl)nc(-n2cccn2)c1=O [compound 181]",
    "Test G disease control rating": "100* %"
  },
  {
    "compound": "CC(C)Cn1c(-c2ccc(C(C)(C)C)cc2)c(Cl)nc(-n2cccn2)c1=O [compound 74]",
    "Test G disease control rating": "0* %"
  },
  {
    "compound": "CC(CF)n1c(-c2c(F)cccc2F)c(Cl)nc(-n2cccn2)c1=O (centres unmarked) [compound 238]",
    "Test G disease control rating": "93* %"
  },
  {
    "compound": "CC(C)Cn1c(-c2c(F)cccc2F)c(Cl)nc(-c2nccs2)c1=O [compound 101]",
    "Test G disease control rating": "0* %"
  },
  {
    "compound": "CC(C)Cn1c(-c2ccc(Cl)cc2F)c(Cl)nc(-n2cncn2)c1=O [compound 44]",
    "Test G disease control rating": "16* %"
  },
  {
    "compound": "COC(=O)Cn1c(-c2c(F)cccc2F)c(Cl)nc(-n2cncn2)c1=O [compound 123]",
    "Test G disease control rating": "0* %"
  },
  {
    "compound": "CC(C)Cn1c(-c2cccnc2)c(Cl)nc(-n2cncn2)c1=O [compound 235]",
    "Test G disease control rating": "0* %"
  },
  {
    "compound": "CC(C)Cn1c(-c2cccc(C(F)(F)F)c2)c(Cl)nc(-n2cncn2)c1=O [compound 232]",
    "Test G disease control rating": "0* %"
  },
  {
    "compound": "CC(C)Cn1c(-c2cccc(Br)c2)c(Cl)nc(-n2cncn2)c1=O [compound 234]",
    "Test G disease control rating": "0* %"
  }
]
